- Read-out: MicroRNA 122 (MIR122), gene 406906
- Experiment description: LTEA_HepaRG_MIR122: Life Technologies and Expression Analysis (LTEA) Assay for MicroRNA 122 (MIR122) using HepaRG (AID 2283516); further: the transcript read is the microRNA miR-122
- Experimental context: mRNA level, 48 h; actives raise or lower the signal
- Procedure: LTEA_HepaRG is a cell based, multiplexed-readout assay that uses HepaRG, a human liver cell line, with measurements taken at 48 hours after chemical dosing on a 96-well plate.LTEA_HepaRG_MIR122 is one of 102 assay component(s) measured in the LTEA HepaRG cell culture assay. It is a marker of MicroRNA.Data from the assay component LTEA_HepaRG_MIR122 was analyzed into 1 endpoint. […]
The source made the active and inactive calls. How the source made its calls: active means hit-call score of the fitted dose curve at least 0.9, where 1 is the maximum; inactive means score below 0.9.
Quantity name: AC50

Solved cases below.
Molecule | AC50
COc1cc(C=O)ccc1O | inactive
CCCCC(CC)COC(=O)CC(C(=O)OCC(CC)CCCC)S(=O)(=O)O (stereo not given) | inactive
C=CCOC(=O)c1ccccc1C(=O)OCC=C | inactive
COc1cc(-c2nc(NC(=O)c3cc4cc(C)cc(C)c4n3CC(=O)O)sc2CCC2CCCCC2)c(OC)cc1Cl | 6.1 µM (active)
Cc1ccc(N(C)C)cc1 | inactive

Give one value of AC50 per listed molecule.
1. NC(=O)Cn1c(=O)cc(CCN2CCN(c3nccc4sccc34)CC2)c2ccc(F)cc21
2. O=C(N[C@@H](Cc1ccccc1)[C@@H](O)C(=O)N1C[C@@H](O)[C@@H](O)C1)c1cc2cc(Cl)ccc2[nH]1
3. Nc1ccccc1N
4. O=c1c(O)c(-c2ccc(O)c(O)c2)oc2cc(O)cc(O)c12
5. COc1ccc(C)cc1N

["inactive", "inactive", "71.4 µM (active)", "inactive", "inactive"]

---

- Experiment description: NVS_IC_rCaDHPRCh_L: NovaScreen (NVS) Ion Channel Assay for rat Calcium Channel, Type L, Dihydropyridine Site (CaDHPRCh_L) (AID 2283320)
Inconclusive results are not listed. Activity calls are given as the source filed them. The calls were made as follows: active = hit-call score of the fitted dose curve at least 0.9, where 1 is the maximum; inconclusive = response in the unintended direction; inactive = score below 0.9.
Quantity name: AC50

Smiles repr | Endpoint result
CCc1c(C(=O)NN2CCCCC2)nn(-c2ccc(Cl)cc2Cl)c1-c1ccc(Br)cc1 | inactive
Cc1cc(=O)[nH]c(=S)[nH]1 | inactive
COc1cc(-c2nc(NC(=O)c3cc4cc(C)cc(C)c4n3CC(=O)O)sc2CCC2CCCCC2)c(OC)cc1Cl | 6.08 µM (active)
CN1CCN(Cc2cc(-c3ccc4[nH]c(=O)oc4c3)co2)[C@@H](c2ccc(F)cc2)C1 | 15 µM (active)

---

- Experiment description: ATG_TAL_CIS: Attagene CIS-FACTORIAL HepG2 Assay for human TAL Basal Promoter (AID 2282966);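 further: background control endpoint measuring basal TAL promoter reporter mRNA not a specific factor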
- Experimental context: HepG2 Attagene cis-factorial TAL promoter reporter; actives raise or lower the signal
The source made the active and inactive calls. Rule for the calls: active = hit-call score of the fitted dose curve at least 0.9, where 1 is the maximum; inactive = score below 0.9.
I would appreciate it if you answered using one of these outcomes: y (active), n (inactive)

// known answers, use as guide
Molecule | Answer label
CCCCCCCC=O | n
CCCCCCCCCCCCCO | n
Cc1nc(C)nc(N2C[C@@H](C)N(c3ccnc([C@@H](C)O)n3)[C@@H](C)C2)n1 | n
CN1CCN(Cc2cc(-c3ccc4[nH]c(=O)oc4c3)co2)[C@@H](c2ccc(F)cc2)C1 | n

For this molecule, state the assay outcome: Cc1ccc2ncccc2c1 n

For this molecule, state the assay outcome: Cc1cc(NC(=O)C(=O)O)cc(C)c1Oc1ccc(O)c2c1CCC2 n

For this molecule, state the assay outcome: Oc1ccc2ccccc2c1N=Nc1ccccc1 n

For this molecule, state the assay outcome: c1cc(-c2ccncc2)ccn1 n

For this molecule, state the assay outcome: NC(=O)Cn1c(=O)cc(CCN2CCN(c3nccc4sccc34)CC2)c2ccc(F)cc21 n
